Test system: TE-5 (Esophageal Squamous Cell Carcinoma)
ASSAY COMMENT: combination Emax (second highest fraction inhibited in the dose matrix, 72 h); higher = more inhibition; extreme values may be limits of the assay
PROPERTY: combination Emax
Lab note: jot the number down without any unit.

Exercise: Indicate the recorded combination Emax value for this molecule: CCN(CCO)CCCOc1ccc2c(Nc3cc(CC(=O)Nc4cccc(F)c4)[nH]n3)ncnc2c1 [AZD2811] + C[C@@H]1COCCN1C2=NC(=NC(=C2)C3(CC3)[S@](=N)(=O)C)C4=C5C=CNC5=NC=C4 [AZD6738] (first compound max 1 µM, 7x7, partner max 10 µM)
Key: 0.476

Exercise: Indicate the recorded combination Emax value for this molecule: COc1cccc(OCCCN)c1-c1cc(Nc2cnc(C#N)cn2)n[nH]1 [Prexasertib] + O=C(c1cc(Cc2n[nH]c(=O)c3ccccc23)ccc1F)N1CCN(C(=O)C2CC2)CC1 [Olaparib] (first compound max 1 µM, 7x7, partner max 10 µM)
Key: 0.521

---

Tested on: CTV-1 (T-Lymphoblastic Leukemia)
ASSAY COMMENT: Bliss excess, mean over the matrix (fraction); higher = more synergy
PROPERTY: Bliss excess
Lab note: jot the number down without any unit.

Exercise: Indicate the recorded Bliss excess value for this compound: C[C@@H](c1ccc2nccn2c1)n1nnc2ncc(-c3cnn(C)c3)nc21 [Savolitinib] + Cc1c2c(nn1C)CSCc1cc(n(C)n1)CSc1cc(c3ccccc3c1)OCCCc1c(C(=O)O)n(C)c3c-2c(Cl)ccc13 [AZD5991] (first compound max 1 µM, 7x7, partner max 1 µM)
Key: -0.0223

Exercise: Indicate the recorded Bliss excess value for this compound: NC1(C(=O)N[C@@H](CCO)c2ccc(Cl)cc2)CCN(c2ncnc3[nH]ccc23)CC1 [Capivasertib] + CC(=O)c1c(C)c2cnc(Nc3ccc(N4CCNCC4)cn3)nc2n(C2CCCC2)c1=O [Palbociclib] (first compound max 10 µM, 7x7, partner max 10 µM)
Key: 0.0198

---

System: IHH-4 (Thyroid Gland Carcinoma)
ASSAY COMMENT: Bliss excess, mean over the matrix (fraction); higher = more synergy
PROPERTY: Bliss excess
Lab note: jot the number down without any unit.

Exercise: Indicate the recorded Bliss excess value for this compound: C[C@@H](c1ccc2nccn2c1)n1nnc2ncc(-c3cnn(C)c3)nc21 [Savolitinib] + CC1(C)CCC(CN2CCN(c3ccc(C(=O)NS(=O)(=O)c4ccc(NCC5CCOCC5)c([N+](=O)[O-])c4)c(Oc4cnc5[nH]ccc5c4)c3)CC2)=C(c2ccc(Cl)cc2)C1 [Venetoclax] (first compound max 1 µM, 7x7, partner max 1 µM)
Key: -0.0399

Exercise: Indicate the recorded Bliss excess value for this compound: CC(=O)c1c(C)c2cnc(Nc3ccc(N4CCNCC4)cn3)nc2n(C2CCCC2)c1=O [Palbociclib] + Cc1c2c(nn1C)CSCc1cc(n(C)n1)CSc1cc(c3ccccc3c1)OCCCc1c(C(=O)O)n(C)c3c-2c(Cl)ccc13 [AZD5991] (first compound max 10 µM, 7x7, partner max 1 µM)
Key: -0.0171

Exercise: Indicate the recorded Bliss excess value for this compound: NC1(C(=O)N[C@@H](CCO)c2ccc(Cl)cc2)CCN(c2ncnc3[nH]ccc23)CC1 [Capivasertib] + CCN(CCO)CCCOc1ccc2c(Nc3cc(CC(=O)Nc4cccc(F)c4)[nH]n3)ncnc2c1 [AZD2811] (first compound max 10 µM, 7x7, partner max 1 µM)
Key: 0.0289

Exercise: Indicate the recorded Bliss excess value for this compound: O=C(c1cc(Cc2n[nH]c(=O)c3ccccc23)ccc1F)N1CCN(C(=O)C2CC2)CC1 [Olaparib] + COc1nnc2ccc(N3CCC(c4ccc(OCCN5CCN(C)C(=O)[C@H]5C)cc4)CC3)nn12 [AZD5153] (first compound max 10 µM, 7x7, partner max 1 µM)
Key: -0.0058

Exercise: Indicate the recorded Bliss excess value for this compound: Cc1cc2ncnn2cc1Nc1ncc2c(n1)n(C1CCOCC1)c(=O)n2C [AZD7648] + O=C(c1cc(Cc2n[nH]c(=O)c3ccccc23)ccc1F)N1CCN(C(=O)C2CC2)CC1 [Olaparib] (first compound max 10 µM, 7x7, partner max 10 µM)
Key: -0.0313

Exercise: Indicate the recorded Bliss excess value for this compound: COc1cccc(OCCCN)c1-c1cc(Nc2cnc(C#N)cn2)n[nH]1 [Prexasertib] + CN(C)CCCOc1ccc(-c2ccc3ncc4c(c3c2)n(C2CCOCC2)c(=O)n4C)cn1 [AZD0156] (first compound max 1 µM, 7x7, partner max 1 µM)
Key: 0.0504

Exercise: Indicate the recorded Bliss excess value for this compound: C=CCn1c(=O)c2cnc(Nc3ccc(N4CCN(C)CC4)cc3)nc2n1-c1cccc(C(C)(C)O)n1 [AZD1775] + O=C(c1cc(Cc2n[nH]c(=O)c3ccccc23)ccc1F)N1CCN(C(=O)C2CC2)CC1 [Olaparib] (first compound max 1 µM, partner max 10 µM)
Key: 0.0194

The measured values listed here are drawn from the supplement of paper PMC11061612.
